system: rodent lifetime carcinogenesis bioassay, tumor incidence TD50; assay: carcinogenic potency in animals, long-term in vivo studies, CPDB compilation (AID 1745844); conditions: rat; strain Fischer 344; males; in feed; site: liver; lesion: adenoma, NOS + angiosarcoma + hepatocellular carcinoma; dosed 98 weeks; study length 104 weeks
reported-endpoint: TD50 (mg/kg/day)
Answer in mg/kg/day, number only, no unit symbol.

Please fill in: TD50 reported for C/C=C(/C)C(=O)O[C@H]1CCN2CC=C(COC(=O)[C@@](O)([C@H](C)OC)C(C)(C)O)[C@H]12 = 0.25

###

tested on: rodent lifetime carcinogenesis bioassay, tumor incidence TD50; assay: carcinogenic potency in animals, long-term in vivo studies, CPDB compilation (AID 1745844); settings: rat; strain Fischer 344; females; in feed; site: mammary gland; lesion: adenocarcinoma, NOS + papillary cystadenocarcinoma, NOS; dosed 78 weeks; study length 101 weeks
reported-endpoint: TD50

GET /value?item= O=[N+]([O-])c1ccc2c3c(cccc13)CC2 &field=TD50 returns 77.9 mg/kg/day

###

tested on: rodent lifetime carcinogenesis bioassay, tumor incidence TD50; assay: carcinogenic potency in animals, long-term in vivo studies, CPDB compilation (AID 1745844); settings: rat; strain Sprague-Dawley; males; by gavage; site: liver; lesion: angiosarcoma; dosed 52 weeks; study length 127 weeks
reported-endpoint: TD50

The measured TD50 that C=CCl showed for rodent lifetime carcinogenesis bioassay, tumor incidence TD50 is 57.4 mg/kg/day

###

tested on: rodent lifetime carcinogenesis bioassay, tumor incidence TD50; experiment: carcinogenic potency in animals, long-term in vivo studies, CPDB compilation (AID 1745844); conditions: rat; strain Osborne-Mendel; females; in feed; site: mammary gland; lesion: adenoma + fibroadenoma; dosed 69 weeks; study length 111 weeks
Activity calls are given as the source filed them. The rule behind the calls is not given here.
reported-endpoint: TD50

Looking up ClC1C2(Cl)C3C4C5OC5C5C4C1(Cl)C(Cl)(C53)C2(Cl)Cl (stereo unspecified) , I found its TD50 recorded as 0.612 mg/kg/day (inactive)

###

system: rodent lifetime carcinogenesis bioassay, tumor incidence TD50; assay: carcinogenic potency in animals, long-term in vivo studies, CPDB compilation (AID 1745844); conditions: rat; strain Fischer 344; males; in feed; site: kidney; lesion: tubular-cell adenoma + tubular-cell adenocarcinoma; dosed 103 weeks; study length 104 weeks
reported-endpoint: TD50

Reported TD50 of O=P(OCC(Br)CBr)(OCC(Br)CBr)OCC(Br)CBr (stereo unspecified) : 1.57 mg/kg/day

###

system: rodent lifetime carcinogenesis bioassay, tumor incidence TD50; assay: carcinogenic potency in animals, long-term in vivo studies, CPDB compilation (AID 1745844); settings: rat; strain Sprague-Dawley Spartan; females; in feed; site: kidney; lesion: several types; types named in the paper; dosed 104 weeks; study length 104 weeks
reported-endpoint: TD50

# TD50 (compound: ClC(Cl)=C(Cl)C(Cl)=C(Cl)Cl ) is 94.4 mg/kg/day

###

tested on: rodent lifetime carcinogenesis bioassay, tumor incidence TD50; test: carcinogenic potency in animals, long-term in vivo studies, CPDB compilation (AID 1745844); settings: mouse; strain Swiss albino; males; in drinking water; site: gall bladder; lesion: adenoma; dosed 65 weeks; study length 72 weeks
reported-endpoint: TD50

Just so you know, measured TD50 for CN(N)C=O came out at 38 mg/kg/day

###

tested on: rodent lifetime carcinogenesis bioassay, tumor incidence TD50; test: carcinogenic potency in animals, long-term in vivo studies, CPDB compilation (AID 1745844); settings: rat; strain Fischer 344; males; inhaled; site: liver; lesion: hepatocellular carcinoma; dosed 113 weeks; study length 113 weeks
reported-endpoint: TD50

Short answer for CCC(C)=NO : TD50 was 242 mg/kg/day

###

tested on: rodent lifetime carcinogenesis bioassay, tumor incidence TD50; experiment: carcinogenic potency in animals, long-term in vivo studies, CPDB compilation (AID 1745844); conditions: rat; strain Sprague-Dawley; females; i.p.; site: ear canal; lesion: squamous-cell carcinoma; dosed 52 weeks; study length 78 weeks
reported-endpoint: TD50 (mg/kg/day)
Supply the numeric figure in mg/kg/day, leaving out any unit text.

Briefly, TD50 measured for Nc1nc(=S)c2ncn([C@H]3C[C@H](O)[C@@H](CO)O3)c2[nH]1 : 2.31

###

test system: rodent lifetime carcinogenesis bioassay, tumor incidence TD50; assay: carcinogenic potency in animals, long-term in vivo studies, CPDB compilation (AID 1745844); details: rat; strain Fischer 344; males; in feed; site: colon; lesion: adenocarcinoma; dosed 78 weeks; study length 78 weeks
reported-endpoint: TD50 (mg/kg/day)
Express the result in mg/kg/day but write the number alone.

The recorded TD50 for O=C1c2ccccc2C(=O)c2c(O)cccc21 is 432

###

system: rodent lifetime carcinogenesis bioassay, tumor incidence TD50; assay: carcinogenic potency in animals, long-term in vivo studies, CPDB compilation (AID 1745844); conditions: mouse; strain Swiss albino; females; in drinking water; site: lung; lesion: adenocarcinoma; dosed 105 weeks; study length 105 weeks
reported-endpoint: TD50 (mg/kg/day)
Report only the number, with the unit mg/kg/day understood.

For C=CCNN on rodent lifetime carcinogenesis bioassay, tumor incidence TD50, measured TD50 was 96

###

tested on: rodent lifetime carcinogenesis bioassay, tumor incidence TD50; experiment: carcinogenic potency in animals, long-term in vivo studies, CPDB compilation (AID 1745844); conditions: mouse; strain B6C3F1; males; in feed; site: liver; lesion: hepatocellular carcinoma; dosed 72 weeks; study length 72 weeks
reported-endpoint: TD50

Recorded result, ClC1=C(Cl)C2(Cl)C3C(Cl)C(Cl)CC3C1(Cl)C2(Cl)Cl (stereo unspecified) , TD50: 2.96 mg/kg/day

###

tested on: rodent lifetime carcinogenesis bioassay, tumor incidence TD50; test: carcinogenic potency in animals, long-term in vivo studies, CPDB compilation (AID 1745844); details: rat; strain Donryu; males; in drinking water; site: any site (literature study); lesion: several types; types named in the paper; dosed 65 weeks; study length 65 weeks
reported-endpoint: TD50 (mg/kg/day)
Number in mg/kg/day, nothing else.

TD50 in this record for CCCCCN(N=O)C(N)=O : 0.541

###

tested on: rodent lifetime carcinogenesis bioassay, tumor incidence TD50; test: carcinogenic potency in animals, long-term in vivo studies, CPDB compilation (AID 1745844); details: rat; strain Sprague-Dawley; both sexes; in drinking water; site: several sites; sites named in the paper; lesion: ependymoblastoma; dosed 104 weeks; study length 104 weeks
reported-endpoint: TD50

// TD50 value for C[C@H]1CCCCN1N=O : 34.5 mg/kg/day

###

tested on: rodent lifetime carcinogenesis bioassay, tumor incidence TD50; assay: carcinogenic potency in animals, long-term in vivo studies, CPDB compilation (AID 1745844); conditions: mouse; strain Swiss; males; inhaled; site: lung; lesion: one or several types; types not named; dosed 78 weeks; study length 145 weeks
reported-endpoint: TD50

Data point: ClC=C(Cl)Cl ; TD50 = 10100 mg/kg/day

###

test system: rodent lifetime carcinogenesis bioassay, tumor incidence TD50; assay: carcinogenic potency in animals, long-term in vivo studies, CPDB compilation (AID 1745844); conditions: rat; strain Fischer 344; males; by gavage; site: spleen; lesion: hemangiosarcoma; dosed 103 weeks; study length 105 weeks
reported-endpoint: TD50 (mg/kg/day)
Write the answer as a number in mg/kg/day, unit excluded.

Here Nc1ccc(Cl)cc1 was tested on rodent lifetime carcinogenesis bioassay, tumor incidence TD50, and its TD50 came to 107

###

system: rodent lifetime carcinogenesis bioassay, tumor incidence TD50; assay: carcinogenic potency in animals, long-term in vivo studies, CPDB compilation (AID 1745844); conditions: rat; strain Fischer 344; females; by gavage; site: liver; lesion: hemangiosarcoma; dosed 102 weeks; study length 104 weeks
reported-endpoint: TD50

Summary: C=C1C/C(=C/C)C(=O)O[C@@H]2CCN3CC=C(COC(=O)[C@@]1(O)CO)[C@H]23 , rodent lifetime carcinogenesis bioassay, tumor incidence TD50, TD50 = 0.457 mg/kg/day

###

system: rodent lifetime carcinogenesis bioassay, tumor incidence TD50; assay: carcinogenic potency in animals, long-term in vivo studies, CPDB compilation (AID 1745844); conditions: mouse; strain B6C3F1; males; by gavage; site: forestomach; lesion: squamous-cell carcinoma + squamous-cell papilloma; dosed 103 weeks; study length 104 weeks
reported-endpoint: TD50

Lab note: O=c1ccc2ccccc2o1 gave TD50 of 152 mg/kg/day

The recorded TD50 for entry c1ccc2occc2c1 equals 108 mg/kg/day

Record CC(=O)OC1CC(C)OC(C)O1 (stereo not drawn) , field TD50: 1440 mg/kg/day

###

tested on: rodent lifetime carcinogenesis bioassay, tumor incidence TD50; test: carcinogenic potency in animals, long-term in vivo studies, CPDB compilation (AID 1745844); conditions: mouse; strain B6C3F1; females; inhaled; site: duodenum + kidney + mediastinum + mammary gland + mesenteric lymph node + multiple organs + spleen + uterus; lesion: malignant lymphoma, NOS + adenocarcinoma, NOS + adenosquamous carcinoma + malignant lymphoma, histiocytic type + adenoma, NOS; dosed 102 weeks; study length 104 weeks
reported-endpoint: TD50 (mg/kg/day)
Give a bare numeral; the unit mg/kg/day is implied.

response.value for C1CO1 (field: TD50) = 79.2
